# target-desc: B9 LBD
# Construct: source species and locus only in SI
# assay-details: ITC
pKd: −log10 of the molar value.
assay-metric: pKd

>>> number("C[C@@H](O)[C@H](N)C(=O)O [L-threonine]")
5.89

###

# target-desc: B6 LBD
# Construct: locus only in SI
# assay-details: ITC
assay-metric: Kd (µM)

>>> number("c1ccc2[nH]ccc2c1 [indole]")
35.6

###

# target-desc: J6 LBD
# assay-details: ITC
assay-metric: Kd (µM)

>>> number("CN")
242
